# Test system: 786-0 renal
# TEST_DETAILS: NCI tumour cell line growth inhibition, 48 h
Attribute: TGI
Reply with just the number (in µM).

Sample records with TGI:
• COc1cc(/C=C/C(=O)c2c(C)nc3ccccc3c2/C=C/c2ccc(C)cc2)cc(OC)c1OC = 3.81
• CCN1Cc2c(ccc(F)c2C#N)O[C@@H](C)CNC(=O)c2c(N)nn3ccc1nc23 = 15.9
• S=c1ssc(Oc2ccccc2)c1Cl = 20.7
• Nc1ccc(CCSSCCc2ccc(N)cc2)cc1 = 36.6

Could you now look at the following molecule, please?
The measured TGI associated with COc1ccc(S(=O)(=O)Nc2cc(/C=C\c3cc(OC)c(OC)c(OC)c3)ccc2OC)cc1 reads 95.6

* * *

Here, each record is paired with measured TGI data.
# System: A549 NSCLC
# TEST_DETAILS: NCI tumour cell line growth inhibition, 48 h

- Cc1ccc(N2CCC3(CC2)OCCO3)cc1: > 100 µM
- Cn1c(Cl)cn2c3nc4ccccc4nc3c(=O)c(C#N)c12: > 100 µM
- COc1ccc2c(c1)Oc1cc(O)ccc1[C@@H]2c1ccccc1C(=O)NC(C)c1ccccc1 (some centres undefined): 42.5 µM
- NC(CCC(=O)NC(CSC(=O)N(O)c1ccccc1)C(=O)NCC(=O)O)C(=O)O (centres undefined): > 1000 µM
- C/C(=N\NC(=S)N1CCN(C)CC1)c1nc2ncccc2[nH]1: > 100 µM

The measured TGI associated with NCCN.NCCN.O=C([O-])CCl.O=C([O-])CCl.[Co+3].[O-][Cl+3]([O-])([O-])[O-] reads > 100 µM

Kindly note the recorded TGI for COc1cccc(N2C(=O)/C(=C\c3ccccc3)SC2c2cc(OC)c(OC)c(OC)c2)c1 (centres undefined) , which is > 100 µM

Just so you know, measured TGI for O=c1nc(NC(c2ccccc2)(c2ccccc2)c2ccccc2)ccn1CCNCCn1ccc(NC(c2ccccc2)(c2ccccc2)c2ccccc2)nc1=O came out at > 100 µM

Reported TGI ( CC(=O)OCC(=O)[C@@]12OC(C)(C)O[C@@H]1C[C@H]1[C@@H]3CC=C4C[C@@H](O)CC[C@]4(C)[C@H]3CC[C@@]12C ) = > 100 µM

Nc1nc(N)c2c(n1)NC(c1ccc(F)cc1)C1CCc3ccccc3C1=N2 (centres undefined) has a reported TGI of 24.3 µM

The compound listed as Cc1ccc(C)n1-c1ccccc1C1C=CN(C(=O)OC(C)(C)C)C=C1 shows TGI equal to > 100 µM

Entry under test: COc1ccc(/C=C2\N=C(SC)N(CN3CCCCC3)C2=O)cc1 . Its TGI was > 100 µM

Quick note, TGI for COc1cc(/C=C/C(=O)c2c(C)nc3ccccc3c2/C=C/c2ccc(C)cc2)cc(OC)c1OC landed at > 100 µM

Looking up COC(=O)C1(C(=O)OC)Cc2ccc(C)cc2C2=C1C(=O)c1ccccc1C2=O , I see its TGI listed as > 100 µM

Record Fc1ccccc1C1SCc2nc3ccccc3n21 (centres undefined) . Reported TGI: > 100 µM

# TGI of CC1=NN(C(=O)CC(=O)Nc2ccc(C)cc2)C(=O)C1N=Nc1ccc(S(=O)(=O)c2ccc(N=NC3C(=O)N(C(=O)CC(=O)Nc4ccc(C)cc4)N=C3C)cc2)cc1 (centres undefined) = > 100 µM

Reported TGI of COc1ccc(CC(=O)NCCc2ccc(OC)c(OC)c2)cc1Br : > 100 µM

Entry Cc1ccc(/C=C2\CN(C)CC3C2=NN(c2ccccc2)C3c2ccc(C)cc2)cc1 (centres undefined) — recorded TGI = > 100 µM

Entry under test: CC(NCCC(=O)N(CCC(=O)N(CCC(=O)N(CCC(=O)N(CCC(=O)N(CCC(=O)N(CCC(=O)N(CCC(=O)N(CCC(=O)N(CCC(=O)O)[C@H](C)c1ccccc1)[C@H](C)c1ccccc1)[C@H](C)c1ccccc1)[C@H](C)c1ccccc1)[C@H](C)c1ccccc1)[C@H](C)c1ccccc1)[C@H](C)c1ccccc1)[C@H](C)c1ccccc1)[C@H](C)c1ccccc1)c1ccccc1 (some centres undefined) . Its TGI was > 75 µM

Form field TGI, entry NC(=O)C1Cc2cc3c(cc21)OCO3 (centres undefined) : > 100 µM

Reported TGI ( c1ccc2cc3[s+]snc3cc2c1 ) = > 100 µM

TGI reading for Nc1ccc(CCSSCCc2ccc(N)cc2)cc1 : > 100 µM

* * *

# System: SW-620 colon
# TEST_DETAILS: NCI tumour cell line growth inhibition, 48 h
MEASURE_NAME: TGI (µM)
Enter your answer as a number in µM; do not include the unit.

* CCCCCCCCCCCCOC1C(C(COC2OC(C3COC(C)(C)O3)C3OC(C)(C)OC23)NC(=O)NS(=O)(=O)c2ccccc2)OC2OC(C)(C)OC21 (stereo not given) | 18.5
* COC(=O)C1(C(=O)OC)Cc2ccc(C)cc2C2=C1C(=O)c1ccccc1C2=O | 45.8
* O=C(c1ccccc1)[C@@H]1C[C@H](Sc2ccccc2)c2cc(Cl)ccc2N1 | 59.8
* CN(C)CCNC(=O)c1cccc2[nH]c(-c3cccnc3)nc12 | 42.1
* COc1ccc2c(c1)Oc1cc(O)ccc1[C@@H]2c1ccccc1C(=O)NC(C)c1ccccc1 (stereo not given in full) | 38.9
* COc1cc(Cl)cc(-c2nn(-c3cccc(NC(=O)Nc4cc(C(F)(F)F)cc(C(F)(F)F)c4)c3)cc2-c2ccncc2)c1 | 2.72

Form: molecule = S=c1ssc(Oc2ccccc2)c1Cl ; TGI = 5.24

Measured TGI of CCN(CC)CCn1c2ccccc2c(=O)c2c(O)ccc(O)c21 : 31.5

The molecule CCN1Cc2c(ccc(F)c2C#N)O[C@@H](C)CNC(=O)c2c(N)nn3ccc1nc23 showed TGI equal to 80.2

Input COc1ccc(OC2OC(COC(c3ccccc3)(c3ccc(OC)cc3)c3ccc(OC)cc3)C(O)C(O)C2O)cc1 (stereo not given) . Output TGI: 14.3

TGI for COc1ccc2c(c1)-c1[nH]c3ccc(OC)cc3c1CC2 is 49.4

So, COc1cccc2c1C(=O)c1c(O)c3c(c(O)c1C2=O)C[C@@](O)(C(=O)CO)C[C@@H]3O[C@H]1C[C@H](N)[C@@H](O)[C@H](C)O1 ? Its TGI was 7.61

The recorded TGI for CNCCNc1c2c(c(NCCNC)c3[nH]ccc13)C(=O)c1ccccc1C2=O is 0.804

According to the records, this molecule CC1=NN(C(=O)CC(=O)NC(=O)CC(=O)Nc2ccccc2F)C(=O)C1N=Nc1ccc([N+](=O)[O-])cc1 (stereo not given) displays TGI of 41.1

Looking up OC(CNCC1CCCO1)Cn1c2ccc(Cl)cc2c2cc(Cl)ccc21 (stereo not given) , I see its TGI listed as 3.38

Quick note, TGI for CC1(C)C/C(=N/O)c2c(nc3ccc4ccccc4c3c2-c2ccc(Cl)cc2)C1 landed at 77.9

* * *

# Test system: MDA-MB-435
# TEST_DETAILS: NCI tumour cell line growth inhibition, 48 h
MEASURE_NAME: TGI

* COc1ccc(-n2cc(-c3cc(OC)c(OC)c(OC)c3)nc2SCc2ccccc2)cc1OC | > 100 µM

Reported TGI ( COc1cc(/C=C/C(=O)c2c(C)nc3ccccc3c2/C=C/c2ccc(C)cc2)cc(OC)c1OC ) = 4.55 µM

The reported value for Cc1sc2nc(-c3ccc([N+](=O)[O-])cc3)c(/C=N/N=C(N)N)n2c1C in terms of TGI is 2.25 µM

Notebook: COc1cc(-n2cc(-c3ccc(Cl)cc3)nc2SCc2cccc(C#N)c2)cc(OC)c1OC , TGI read as > 100 µM

Just so you know, measured TGI for CC(NCCC(=O)N(CCC(=O)N(CCC(=O)N(CCC(=O)N(CCC(=O)N(CCC(=O)N(CCC(=O)N(CCC(=O)N(CCC(=O)N(CCC(=O)O)[C@H](C)c1ccccc1)[C@H](C)c1ccccc1)[C@H](C)c1ccccc1)[C@H](C)c1ccccc1)[C@H](C)c1ccccc1)[C@H](C)c1ccccc1)[C@H](C)c1ccccc1)[C@H](C)c1ccccc1)[C@H](C)c1ccccc1)c1ccccc1 (stereo partly drawn) came out at > 16.1 µM

Entry CC(C)(C)NCC(O)c1ccc(O)c(CO)n1 (stereo not drawn) ; TGI = > 100 µM

For reference, reported TGI for COC(=O)C1(C(=O)OC)Cc2ccc(C)cc2C2=C1C(=O)c1ccccc1C2=O stands at 31.4 µM

Briefly, TGI measured for Oc1ccc(Cc2nccc3cc(O)c(O)cc23)cc1O : > 100 µM

* * *

# Test system: HCC-2998 colon
# TEST_DETAILS: NCI tumour cell line growth inhibition, 48 h
Below is a list of entries, each paired with its recorded GI50 value.

Example cases with answers are listed next.
* Cc1cc(=O)[nH]c2cc3c(c4c(n3Cc3ccc(Cl)cc3Cl)CC(C)(C)CC4=O)c(O)c12 | > 100 µM
* FC(F)(F)c1ccc(C#Cc2ccccc2C#Cc2ccccc2)cc1 | 32.7 µM
* COc1cc(-n2cc(-c3ccc(Cl)cc3)nc2SCc2cccc(C#N)c2)cc(OC)c1OC | > 100 µM

Entry Cc1ccc2c(c1)C(C)Cc1c(Cl)ncnc1N2C (configuration not stated) ; GI50 = 3.54 µM

Documented GI50 of COc1ccc(S(=O)(=O)Nc2cc(/C=C\c3cc(OC)c(OC)c(OC)c3)ccc2OC)cc1 : 0.442 µM

Cc1cc2[nH]c(=O)c3c4ccccc4cn3c2cc1C yielded GI50 of 4.04 µM

The molecule identified as CC[C@@]1(OC(=O)CN)C(=O)OCc2c1cc1n(c2=O)Cc2cc3c(N)cccc3nc2-1 registered its GI50 at 0.084 µM

What the record says about COc1ccc(/C=C(\C#N)n2nnc3ccccc32)cc1 : GI50 is 0.458 µM

What the record says about Cc1cc(NCc2cc(Nc3ccnc4cc(Cl)ccc34)ccc2F)nc(N2CCN(C)CC2)n1 : GI50 is 2.09 µM

GI50 in this record for O=C(c1ccccc1)C(Br)C(Br)c1cccc([N+](=O)[O-])c1 (configuration not stated) : 1.57 µM

Looking up CC(C)COCC(CN(Cc1ccccc1)c1ccccc1)N1CCCC1 (configuration not stated) , I see its GI50 listed as 2.25 µM

Notebook: CCC[CH2][Sn]([CH2]CCC)([CH2]CCC)[O]C(=O)c1ccc(Cl)cc1Cl , GI50 read as 0.168 µM

Where do these numbers come from? They come from PubChem BioAssay (NCI).
